Biological target: substance P receptor (receptor from human lymphoblast cells (IM-9)) (Homo sapiens, UniProt P25103)
Construct: The receptor was prepared from human lymphoblast cells (IM-9); endogenous in cells
Sequence (P25103 whole entry): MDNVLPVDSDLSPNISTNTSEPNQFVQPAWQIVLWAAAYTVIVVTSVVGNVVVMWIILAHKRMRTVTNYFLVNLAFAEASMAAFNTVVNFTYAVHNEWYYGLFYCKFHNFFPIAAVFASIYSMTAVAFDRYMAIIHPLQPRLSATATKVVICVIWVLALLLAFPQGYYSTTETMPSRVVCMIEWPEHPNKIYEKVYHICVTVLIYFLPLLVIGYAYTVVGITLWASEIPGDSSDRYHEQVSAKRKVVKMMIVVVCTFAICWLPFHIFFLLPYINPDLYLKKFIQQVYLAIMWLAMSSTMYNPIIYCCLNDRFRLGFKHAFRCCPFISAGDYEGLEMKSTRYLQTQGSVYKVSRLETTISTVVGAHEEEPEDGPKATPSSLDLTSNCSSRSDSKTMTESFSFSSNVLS
Assay: Radioligand receptor binding inhibitory activity using receptor from human lymphoblast cells (IM-9), 125I-BHSP
Details: Table 1, IM-9 receptor, 25° C., 30 minutes
Endpoint name: IC50 (nM)

{"columns": ["Structure smiles", "Endpoint name", "Reported measurement"],
 "data": [
  ["Cc1ccc(-c2c3n(c(=O)c4ncccc24)C[C@@H](C)CN(Cc2cc(C(F)(F)F)cc(C(F)(F)F)c2)C3=O)cc1", "IC50", 0.28]
]}
